Target: BRD9 (Homo sapiens, UniProt Q9H8M2)
Sequence (Q9H8M2 1-597): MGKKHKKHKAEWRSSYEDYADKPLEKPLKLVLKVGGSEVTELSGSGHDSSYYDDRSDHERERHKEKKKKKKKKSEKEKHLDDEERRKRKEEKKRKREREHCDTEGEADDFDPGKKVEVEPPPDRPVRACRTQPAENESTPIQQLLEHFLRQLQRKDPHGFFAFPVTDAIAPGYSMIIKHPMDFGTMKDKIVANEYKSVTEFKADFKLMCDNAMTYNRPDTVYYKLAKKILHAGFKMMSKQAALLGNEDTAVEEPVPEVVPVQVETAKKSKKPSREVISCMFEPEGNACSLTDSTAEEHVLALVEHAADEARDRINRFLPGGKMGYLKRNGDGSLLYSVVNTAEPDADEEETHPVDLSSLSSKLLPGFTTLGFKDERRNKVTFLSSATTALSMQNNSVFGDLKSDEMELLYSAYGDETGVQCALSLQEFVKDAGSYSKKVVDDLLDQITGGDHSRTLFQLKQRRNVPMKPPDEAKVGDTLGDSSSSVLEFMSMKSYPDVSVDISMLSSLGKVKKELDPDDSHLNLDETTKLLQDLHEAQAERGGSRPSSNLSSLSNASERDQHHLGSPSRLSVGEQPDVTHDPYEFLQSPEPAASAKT
Assay: BRD9 degradation, HiBiT-BRD9 KI HEK293 (LgBiT) cells, NanoGlo Lytic Endpoint assay (Assay Protocol 1)
Format: cell-based
Details: Table 2; BRD9 degradation, Assay Protocol 1; 6 h of treatment; read-out: Assay 1 DC50
Here, each record is paired with measured DC50 data.

These recorded examples may help you get a feel for the data.
COc1cc(-c2cc(C)c(=O)n(C)c2)cc(OC)c1CN1CCN(Cc2cccc3c2CCN(C(=O)/C(C#N)=C/C2(F)CC2)C3C)CC1 (mixture of isomers)	< 1.25 nM
COc1cc(-c2cn(C)c(=O)c(C)c2C)cc(OC)c1CN1CCN(Cc2cccc3c2CCN(C(=O)/C(C#N)=C/c2nc4ccccc4s2)C3C)CC1 (mixture of isomers)	1.25 to 10 nM
COc1cc(-c2cn(C)c(=O)c(C)c2C)cc(OC)c1CN1CCN(C(=O)CCc2ccc3c(c2)CCN(C(=O)/C(C#N)=C/c2nccs2)C3C)CC1 (mixture of isomers)	10 to 25 nM
COc1cc(-c2cn(C)c(=O)c(C)c2C)cc(OC)c1CN1CCCN(Cc2cccc3c2CCN(C(=O)/C(C#N)=C/C2(F)CC2)C3C)CC1 (single isomer, unassigned)	1.25 to 10 nM

The record that follows has no DC50 shown yet.
Quick one: DC50 for COc1cc(-c2cn(C)c(=O)c3cc(C(=O)NCCCCCOc4cccc(C5CCCN5C(=O)/C(C#N)=C/c5nccs5)c4)sc23)cc(OC)c1CN(C)C (mixture of isomers) ? 25 to 300 nM

----------
Entries and their Dmax
target: BRD9 (Homo sapiens); test: BRD9 degradation, HiBiT-BRD9 KI HEK293 (LgBiT) cells, NanoGlo Lytic Endpoint assay (Assay Protocol 1); assay type: cell-based; details: HEK293; Assay protocol 1; BRD9 degradation; read-out: Dmax

Example results:
COc1cc(-c2cn(C)c(=O)c(C)c2C)cc(OC)c1CN1CCN(Cc2cccc3c2CCN(C(=O)/C(C#N)=C/C24CC(C2)C4)C3C)CC1 (mixture of isomers) [Compound B45]	> 75%
COc1cc(-c2cn(C)c(=O)c3ccsc23)cc(OC)c1CN1CCN(Cc2cccc3c2CCN(C(=O)/C(C#N)=C/C(C)(C)C)C3C)CC1 (mixture of isomers) [Compound B59]	40 to 70%
COc1cc(-c2cn(C)c(=O)c(C)c2C)cc(OC)c1CN1CCN(Cc2cccc3c2CCN(C(=O)/C(C#N)=C/c2ncc(C(F)(F)F)s2)C3C)CC1 (mixture of isomers) [Compound B10]	70 to 75%
COc1cc(-c2cn(C)c(=O)c(C)c2C)cc(OC)c1CN1CCN(Cc2cccc3c2CCN(C(=O)/C(C#N)=C/c2ncccc2C(F)(F)F)C3C)CC1 (mixture of isomers) [Compound B49]	40 to 70%

Could you now look at the following compound, please?
Endpoint output: Dmax of CCCC(c1ccc(C(=O)N(C)CCCCCCC(=O)N2CCN(Cc3c(OC)cc(-c4cn(C)c(=O)c(C)c4C)cc3OC)CC2)cc1)N(C)C(=O)/C(C#N)=C/c1nccs1 (mixture of isomers) [Compound B182] . Value? 40 to 70%
